pKi: −log10 of the molar value.
Header: pKi / Carbonic anhydrase 12 (Homo sapiens, UniProt O43570) / multiple publications
Value Kind: pKi

Below: 5 compounds and their reported pKi.
O=C(O)c1ccc(O)cc1
5.20
CC1=NN(c2ccccc2)C(=O)/C1=N/Nc1cccc(S(N)(=O)=O)c1
7.27
CC(=O)N1N=C(c2ccc(Cl)cc2)CC1c1ccc(OS(N)(=O)=O)cc1 (centres undefined)
7.53
CN(C)C(=O)Nc1ccc(S(N)(=O)=O)cc1
6.15
CC(=O)OC[C@H]1O[C@@H](NC(=S)NCc2ccc(S(N)(=O)=O)cc2)[C@H](OC(C)=O)[C@@H](OC(C)=O)[C@@H]1O[C@H]1O[C@H](COC(C)=O)[C@@H](OC(C)=O)[C@H](OC(C)=O)[C@H]1OC(C)=O
8.08

I: N#CCCN(CCc1ccccc1)CC(=O)N(CCc1ccc(S(N)(=O)=O)cc1)Cc1ccco1
II: CCOc1ccc(S(=O)(=O)N2CCCCC2)cc1-c1nnc2c(n1)c(C)nn2C
### Prompt Between I and II , whose measured pKi reads higher? To answer, give the label that identifies your chosen option.
### Response I

====

pKi: −log10 of the molar value.
Header: pKi / Carbonic anhydrase 12 (Homo sapiens) / multiple publications
Value Kind: pKi

Below: 5 compounds and their reported pKi.
CC(C)CC(=O)OC[C@H]1O[C@@H](n2cc(-c3ccc(S(N)(=O)=O)cc3)nn2)[C@H](OC(=O)CC(C)C)[C@@H](OC(=O)CC(C)C)[C@@H]1OC(=O)CC(C)C
7.28
CCCCCCN(CCCCCC)CCC(=O)N(CCc1ccc(S(N)(=O)=O)cc1)Cc1ccco1
8.01
NS(=O)(=O)c1ccc(N2C(=O)c3c(Br)c(Br)c(Br)c(Br)c3C2=O)c(Br)c1
8.19
Nc1ccc(S(N)(=O)=O)cc1I
7.96
NS(=O)(=O)c1ccc(-c2cnc(C(=O)NC3CCNCC3)o2)cc1
7.06

1: C/C(=N\Nc1nc(-c2ccc(Cl)cc2)cs1)c1nnn(-c2ccc(S(N)(=O)=O)cc2)c1C
2: CC(=O)OC[C@H]1O[C@@H]([Se]c2ccc(NC(=S)Nc3ccc(S(N)(=O)=O)cc3)cc2)[C@H](OC(C)=O)[C@@H](OC(C)=O)[C@H]1OC(C)=O
3: CCOc1c(C(C)=O)c(=O)oc2ccc(Br)cc12
4: O=C1c2ccccc2S(=O)(=O)N1Cc1cccc2ccccc12
5: NS(=O)(=O)c1ccc(CCN(Cc2ccc3ccccc3c2)C(=O)CN(CCC(=O)O)CCc2ccccc2)cc1
### Prompt Hey, quick one: sort these by pKi, largest value first please. Provide your answer as the labels ordered per the instruction.
### Response 5, 1, 2, 3, 4
(5: 8.17, 1: 7.87, 2: 7.47, 3: 6.13, 4: 5.60)

A: CC(=O)N1N=C(c2cccc(OS(N)(=O)=O)c2)CC1c1ccc(Cl)cc1Cl (configuration not stated)
B: Cc1nn(C)c2nnc(Nc3ccc(S(=O)(=O)NCCO)cc3)nc12
### Prompt Between A and B , whose measured pKi reads higher? To answer, give the label that identifies your chosen option.
### Response B
(B: 8.12, A: 7.47)

P: OB1OCc2ccc(NC(=S)Nc3ccc(C(F)(F)F)cc3)cc21
Q: CC1CN(C)S(=O)(=O)c2ccc(N)cc21 (configuration not stated)
### Prompt Hi! Which is lower in terms of pKi, the first one P or the second one Q ? To answer, give the label that identifies your chosen option.
### Response Q

====

Header: Ki / Carbonic anhydrase 12 (Homo sapiens) / multiple publications
Value Kind: Ki (µM)

Nc1nc(-c2ccc(NCc3ccc(S(N)(=O)=O)cc3)cc2)cn2c(=O)n(-c3ccccc3)nc12
0.625
CCOc1ccc(S(=O)(=O)NCCN2CCOCC2)cc1-c1nnc2c(n1)c(C)nn2C
0.0595
CCCCCCN(CCCCCC)CCC(=O)N(CCc1ccc(S(N)(=O)=O)cc1)Cc1ccccc1
0.0778

P: CC(=O)N1N=C(c2ccc(Cl)c(Cl)c2)CC1c1ccc(OS(N)(=O)=O)cc1 (stereo not given)
Q: Nc1cccc(S(N)(=O)=O)c1
R: NS(=O)(=O)c1cccc(NC(=O)Nc2cccc(C(F)(F)F)c2)c1
S: CC(=O)N1N=C(c2cccc(OS(N)(=O)=O)c2)CC1c1cccc(Cl)c1 (stereo not given)
T: N=C(N)Nc1ccc(O)cc1
### Prompt Hey, quick one: sort these by Ki, largest value first please. Provide your answer as the labels ordered per the instruction.
### Response T, R, Q, S, P

a: COc1cccc(-c2noc(-c3csc(S(N)(=O)=O)c3)n2)c1
b: NCCNCCNCCN
c: NS(=O)(=O)c1ccc(-n2cc(CNC(=S)Nc3ccc(-c4c5ccc(=O)cc-5oc5cc(O)ccc45)c(C(=O)O)c3)nn2)cc1
d: Nc1ccc(S(=O)(=O)Nc2nnc(S(N)(=O)=O)s2)cc1
e: NS(=O)(=O)c1ccc(CCN(Cc2ccco2)C(=O)CN(CCC(=O)O)CCc2ccccc2)cc1
### Prompt Hey, quick one: sort these by Ki, largest value first please. Provide your answer as the labels ordered per the instruction.
### Response b, d, a, e, c
(b: 57 µM, d: 0.085 µM, a: 0.0336 µM, e: 0.0071 µM, c: 0.0041 µM)

====

Header: Ki / Carbonic anhydrase 12 (Homo sapiens) / multiple publications
Value Kind: Ki (nM)

Below: 10 compounds and their reported Ki.
O=c1cc(-c2ccccc2)c2ccc(O)cc2o1
90.8
Cc1nn(-c2ccccc2)c2c1c(=O)oc1cc(Cl)c([N+](=O)[O-])cc12
6060
NS(=O)(=O)c1ccc(CCNc2nc(Cl)nc(Cl)n2)cc1
43.8
N#Cc1ccccc1NC(=O)Nc1ccc(S(N)(=O)=O)cc1
4.6
CCOC(=O)c1cc2cc(CO)ccc2oc1=O
25600
CCCCCCCC/C=C\CCCCCCCCNC(=O)CCN(CCc1ccccc1)CC(=O)N(CCc1ccc(S(N)(=O)=O)cc1)Cc1ccco1
5.5
COc1ccc(/C=N/c2ccc(S(N)(=O)=O)cc2)cc1
11.2
COc1cc(/C=C/C(=O)OCCCCO[N+](=O)[O-])ccc1OC(=O)CCc1ccc(S(N)(=O)=O)cc1
87
CC(=O)OC[C@H]1O[C@@H](O[C@H]2[C@H](OC(C)=O)[C@@H](OC(C)=O)[C@H](SNCCc3ccc(S(N)(=O)=O)cc3)O[C@@H]2COC(C)=O)[C@H](OC(C)=O)[C@@H](OC(C)=O)[C@H]1OC(C)=O
8.7
O=C(O)c1ccc(N2C(=O)c3ccccc3C2=O)cc1
18.7

I: CCCCCCN(CCCCCC)CC(=O)N(CCC#N)CCc1ccc(S(N)(=O)=O)cc1
II: NS(=O)(=O)c1cccc(-n2cc(CNC(=S)Nc3ccc(-c4c5ccc(=O)cc-5oc5cc(O)ccc45)c(C(=O)O)c3)nn2)c1
III: NS(=O)(=O)c1ccc(-c2ccc(C(=O)c3ccc(C(=O)O)cc3)cc2)cc1
IV: Nc1ccc(S(N)(=O)=O)nc1
### Prompt Rank the items in ascending order with respect to Ki. Provide your answer as the labels ordered per the instruction.
### Response I, II, III, IV

====

Header: Ki / Carbonic anhydrase 12 (Homo sapiens) / multiple publications

CC(=O)OC[C@H]1O[C@@H]([Se]c2ccc(S(N)(=O)=O)c(N)c2)[C@H](OC(C)=O)[C@@H](OC(C)=O)[C@H]1OC(C)=O
> 10 µM
Cn1cc(S(N)(=O)=O)c2cc(NC(=O)c3ccnc(N)c3)ccc21
> 100 µM
CCN(CC)c1ccc(C=O)c(OCc2cn(CCCOc3ccc4ccc(=O)oc4c3)nn2)c1
> 10 µM
COc1cc(C=O)ccc1OCc1cn(CCCOc2ccc3ccc(=O)oc3c2)nn1
> 10 µM

### Prompt I'd like to know its Ki. The compound in question is "COc1ccc(NC(=O)c2ccc3c(c2)C(=O)OC3=O)c(C(=O)O)c1"
### Response > 0.1 µM

====

Header: Ki / Carbonic anhydrase 12 (Homo sapiens, UniProt O43570) / multiple publications
Value Kind: Ki (nM)

I: N[S+]([O-])c1ccc(S(=O)(=O)Nc2cccc3c(Cl)c[nH]c23)cc1 (centres undefined)
II: NS(=O)(=O)c1ccc(OCc2ccc(Br)cc2)cc1
III: NCCNc1cccc2ccccc12
### Prompt Lab note: Ki ranking, ascending, for the listed molecules. Provide your answer as the labels ordered per the instruction.
### Response I, II, III

====

Header: Ki / Carbonic anhydrase 12 (Homo sapiens, UniProt O43570) / multiple publications
Value Kind: Ki (nM)

CCOc1ccc(S(N)(=O)=O)cc1
13.6
CC(=O)N1N=C(c2cccc(OS(N)(=O)=O)c2)CC1c1ccc(Cl)cc1 (centres undefined)
9.3

1: NS(=O)(=O)c1cc(-c2nc(-c3ccccn3)no2)cs1
2: NS(=O)(=O)c1ccc(CN2C(=O)c3c(Br)c(Br)c(Br)c(Br)c3C2=O)cc1
### Prompt Between 1 and 2 , whose measured Ki reads higher? To answer, give the label that identifies your chosen option.
### Response 2
